- TARGET: T1, PUF4 RNA-binding domain (Saccharomyces cerevisiae, UniProt P25339 537-888)
- T1 sequence: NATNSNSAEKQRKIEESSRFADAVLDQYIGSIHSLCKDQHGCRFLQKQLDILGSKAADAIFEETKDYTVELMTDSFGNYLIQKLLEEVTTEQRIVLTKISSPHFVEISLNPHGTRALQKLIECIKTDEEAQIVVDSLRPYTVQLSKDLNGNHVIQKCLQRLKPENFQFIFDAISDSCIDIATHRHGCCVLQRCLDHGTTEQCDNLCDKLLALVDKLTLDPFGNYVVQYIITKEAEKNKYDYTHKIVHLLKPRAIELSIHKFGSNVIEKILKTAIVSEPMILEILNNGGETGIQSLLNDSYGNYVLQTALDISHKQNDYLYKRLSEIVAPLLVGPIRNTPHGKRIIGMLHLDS
- MEASUREMENT NOTES: Mg; RNA-MaP; 20 mM Na-HEPES pH 7.4, 30 mM KOAc, 0.75 mM MgCl2, 0.1% Tween-20, 5% glycerol, 0.1 mg/mL BSA, 2 mM DTT; 25 C; 0.0125-409.6 nM protein
- CONDITIONS: tags: N-His6-TEV cleaved; C-SNAP kept, Cy3B-labelled; label: tethered on chip by stalled RNA polymerase
Note to self: class = bucket of Kd, per bin A = under 10 nM, bin B = from 10 nM up to 70 nM, bin C = 70 nM and over

Ask: // bin(item) where item = ACAAACUGUAUCCCUUUAUUAACAAAC (ssRNA) [Ie_S3_P5E.1_K5.1_C5.1_H5.1_A5.1_[+5CCCTT]_F5.1_T5.1]
Reply: bin C

Ask: Another binder to check: UCUCUUUGUAACAGUUCUCUU (ssRNA) [Ic_S1_P4E.1_K4.1_C4.1_H4.1_A4.1_[T5A]_[A6C]_[T7A]_F4.1_[T8G]_[A9T]_T4.1]
Reply: bin C

Ask: Another binder to check: ACAAACGGUAUAUUAUUAGGACAAAC (ssRNA) [Id_ii_S3_P5E.3_K5.2_C5.2_[C-2G]_[T-1G]_H5.2_A5.1_F5.1_T5.2_[T11G]_[A12G]]
Reply: bin B

Ask: Another binder to check: UCUCUUUGUACCCGAUUCUCUU (ssRNA) [Ic_S1_P5E.1_K5.1_C5.1_H5.1_A5.1_[T5C]_[T6C]_[A7C]_F5.1_[T8G]_[T9A]_[A10T]_T5.1]
Reply: bin C

Ask: Another binder to check: UCUCUUUUUAUAUAUUAUCUCUCUU (ssRNA) [Id_ii_S1_P4E.3_K4.2_C4.2_[C-2T]_H4.2_A4.1_F4.1_T4.2_[G10T]_[T11C]]
Reply: bin B

Ask: Another binder to check: UCUCUUCUUAUAUAUUACGUCUCUU (ssRNA) [Id_ii_S1_P4E.3_K4.2_C4.2_H4.2_A4.1_F4.1_T4.2_[G10C]_[T11G]]
Reply: bin B

Ask: Another binder to check: Ia_S4_P5E.1_K5.1_C5.1_H5.1_A5.1_F5.1_[T9A]_T5.1 (ssRNA) RNA: UUUGACAACUGAUCGUUCUUUCUUGUAUUAUAAUUCUUUCUCGAUCAGUUGUCUUU
Reply: bin A

Ask: Another binder to check: UCUCUUUGUUAUUAUUAUCUCUU (ssRNA) [Ie_S1_P5E.1_K5.1_C5.1_H5.1_[+2T]_A5.1_F5.1_T5.1]
Reply: bin B

Ask: Another binder to check: UCUCUUGCUGUAUUAUUAUUUCUCUU (ssRNA) [Id_ii_S1_P5E.2_K5.1_C5.2_[C-2G]_[T-1C]_H5.1_A5.1_F5.1_T5.2_[A12T]]
Reply: bin B

Ask: Another binder to check: Id_iii_S2_P4E.7_K4.3_C4.3_[T-1C]_H4.3_A4.1_F4.1_T4.2 (ssRNA) RNA: UUUGAUUAAUAUGAUAUCGUUCUUUCUUCCACACUAUUAGUUUCUUUCUCGAUAUCAUAUUAAUCUUU
Reply: bin C

Ask: Another binder to check: UCUCUUUGUACUGUGUUCUCUU (ssRNA) [Ic_S1_P5E.1_K5.1_C5.1_H5.1_A5.1_[T5C]_[A7G]_F5.1_[T9G]_[A10T]_T5.1]
Reply: bin B

Ask: Another binder to check: Ib_S4_P5E.1_K5.1_C5.1_H5.1_[A4C]_A5.1_F5.1_[T9A]_T5.1 (ssRNA) RNA: UUUGACAACUGAUCGUUCUUUCUUGUCUUAUAAUUCUUUCUCGAUCAGUUGUCUUU
Reply: bin B

Ask: Another binder to check: Ic_S4_P5E.1_K5.1_C5.1_H5.1_A5.1_[T6C]_F5.1_[T9A]_T5.1 (ssRNA) RNA: UUUGACAACUGAUCGUUCUUUCUUGUAUCAUAAUUCUUUCUCGAUCAGUUGUCUUU
Reply: bin A

Ask: Another binder to check: UCUCUUUGUACUCUUAUUAUCUCUU (ssRNA) [Ie_S1_P5E.1_K5.1_C5.1_H5.1_[+4CTC]_A5.1_F5.1_T5.1]
Reply: bin A

Ask: Another binder to check: Id_ii_S2_P5E.2_K5.1_C5.2_[C-2A]_[T-1A]_H5.1_A5.1_F5.1_T5.2_[A12C] (ssRNA) RNA: UUUGAUUAAUAUGAUAUCGUUCUUUCUAAUGUAUUAUUAUCUUCUUUCUCGAUAUCAUAUUAAUCUUU
Reply: bin A

Ask: Another binder to check: Id_ii_S2_P3E.3_K3.2_C3.2_[C-2T]_[T-1G]_H3.2_A3.1_F3.1_T3.2_[T9G]_[A10C] (ssRNA) RNA: UUUGAUUAAUAUGAUAUCGUUCUUUCUUGUAUAUAUAGCUUCUUUCUCGAUAUCAUAUUAAUCUUU
Reply: bin A

Ask: Another binder to check: UCUCUUAUUGUAUUAUUAUCUCUCUU (ssRNA) [Id_ii_S1_P5E.2_K5.1_C5.2_[C-2A]_H5.1_A5.1_F5.1_T5.2_[A12C]]
Reply: bin A

Ask: Another binder to check: Id_ii_S2_P4E.2_K4.1_C4.2_[C-2T]_H4.1_A4.1_F4.1_T4.2_[G10T]_[T11C] (ssRNA) RNA: UUUGAUUAAUAUGAUAUCGUUCUUUCUUUUGUAUAUUAUCUUCUUUCUCGAUAUCAUAUUAAUCUUU
Reply: bin A

Ask: Another binder to check: UCUCUUUUUGUAUAUAACUCUCUU (ssRNA) [Id_ii_S1_P3E.2_K3.1_C3.2_[C-2T]_H3.1_A3.1_F3.1_T3.2_[T9A]_[A10C]]
Reply: bin A

Ask: Another binder to check: Ic_S4_P4E.1_K4.1_C4.1_H4.1_A4.1_[T5G]_[A6T]_[T7C]_F4.1_[A9C]_T4.1 (ssRNA) RNA: UUUGACAACUGAUCGUUCUUUCUUGUAGUCUCUUCUUUCUCGAUCAGUUGUCUUU
Reply: bin C

Ask: Another binder to check: UCUCUUACUAUAUUAUUAUCUCUCUU (ssRNA) [Id_ii_S1_P5E.3_K5.2_C5.2_[C-2A]_[T-1C]_H5.2_A5.1_F5.1_T5.2_[A12C]]
Reply: bin C

Ask: Another binder to check: Ic_S4_P3E.1_K3.1_C3.1_H3.1_A3.1_[A6C]_F3.1_[A8T]_T3.1 (ssRNA) RNA: UUUGACAACUGAUCGUUCUUUCUUGUAUCUUUUCUUUCUCGAUCAGUUGUCUUU
Reply: bin B

Ask: Another binder to check: UCUCUUUGUAUCUUCCUCUCUU (ssRNA) [Ic_S1_P5E.1_K5.1_C5.1_H5.1_A5.1_[T6C]_[A7T]_F5.1_[T9C]_[A10C]_T5.1]
Reply: bin C

Ask: Another binder to check: Ic_S2_P4E.1_K4.1_C4.1_H4.1_A4.1_[T5A]_[A6C]_[T7G]_F4.1_[T8C]_[A9T]_T4.1 (ssRNA) RNA: UUUGAUUAAUAUGAUAUCGUUCUUUCUUGUAACGCUUUCUUUCUCGAUAUCAUAUUAAUCUUU
Reply: bin C

Ask: Another binder to check: UCUCUUUGUAAGUAUCUCUU (ssRNA) [Ic_S1_P3E.1_K3.1_C3.1_H3.1_A3.1_[T5A]_[A6G]_F3.1_T3.1]
Reply: bin C
